- ASSAY_EXPLANATION: soluble on expression in E. coli; label from the status in PepcDB or PDB records
RECORDED_METRIC: soluble on expression in E. coli

// worked examples, soluble on expression in E. coli included
- SEQUENCE_CONTENT: "MSLRHFFGAFLLGMATLTVMPTEQVLAGTLTGQPPIVIGHRGASGYRPEHTLAAYELAIQMGADYIEPDLVATKDGVLVARHENALAILNADGTLNLTDTSTDVFERLQFADRKTTKVIDGRSITGWFTEDFTLAELKTLRAIERIPGIRPQNTQYDRQFEIPTLQEVIDLAKAQSAALGRTIGIYPETKHPTYFDSIGLSMEEILVSVLNANGYVDESAPVYIQSFEVSNLKDLNRLTNVSLVQLISPSGRPYDFVVNGDSRLYRDLITPLGLAEIATYANGIGANKNLIIPRDGRGNLLSPTTLVDDAHAAGLIVHAWTFRNEDVFLPTNLQGNPQEEYKRFYQTGIDGLFSDNPDTAFAVRSTLVPEPGTIFGLGFVPLLGWLFRRRKEGHHHHHH"
  soluble on expression in E. coli: "not soluble"
- SEQUENCE_CONTENT: "MSLKFAAGFVLIDAPHSALNMLGIDESLPDRNVTRVKTLRRGGNRYVYISPQAWRYWWRITLKEYFNWELSPLFREEKQVFTAANPIKYPDDDVFGYMRAYKKNKVNVTVTRISPLKNTPLVSVLPDRSSLTIDEGYASRHEGDPVPYSQEFYSTVLKGAFSLDLDLVGRFTTKNKAGYKNLLTRDDIPKKGKGEDIVKEIKELEELARNVGVEIKDGEWIMPKEIRKKRSIETIKALRYLTGGAKQTQYHTDVTPKLFLGIIVNGGINPFISDIVREEKGEIILDAEALATRLEDFSDIIDSKLFLGYDMGFVRSLGLEIEAIKSTAGIEVVEGKVGEIIEKFAEEAGKYYIEGHHHHHH"
  soluble on expression in E. coli: "soluble"
- SEQUENCE_CONTENT: "MGSSESIVKLNVGGTVFVTLKSTLTKHHGIFKALVKTEMPAEDGDSFFIDRSPKHFETVLNYIRSGDVDLPDSENELKELKREAEYYSLEKLATLCQSSMPKIKSYKTADELLNMIANTKKVVVVIHYLAYKNQLHTIPLGFKFSEFVERNKDKAEVFIYEIKDEEELKDKPYVDDPNRVWSFCIFNSEWSENYPLKSLRDIQVQLDCFGDF"
  soluble on expression in E. coli: "not soluble"
- SEQUENCE_CONTENT: "MKELKQAEQIRTWVQSILTDESSGHDWHHVSRVADLAAYIGEKEKADLFIVETAALVHDLIDVKLPDTVRLSVSEVYDQLVFFGVGKENADRVIHIITRMSFRDRGKLAKEPLSIEGKAVQDADRLDAIGAVGIARAFMFAGAKGHGLYGDEQSAYAHFFHKLLRLKDMMNTDTARELAEERHNFMLQFVRQLEKDIPGIDAETSLEHHHHHH"
  soluble on expression in E. coli: "soluble"
- SEQUENCE_CONTENT: "MGSDKIHHHHHHVRVTSSSGSCITIPTGVTNVTIRDSEIGPCGQPGDTSAKGIDIQSGASNITVQRNYIHDMATALYAAGARHPIIFDRNRVTNIRGPFPRGQMVQFNGVKSGTSGSKVTCNVSDVQGATYSNVEDHINMYDSGGLSNDRTEIAYNRLRGGSPTSNSGTAIMVGDGASGGNAWVHHNTIVNVRNVGIGVAGGTNIDVESNRIYMDRAATYTNVGLYVWSQGGGSCSGHSVTGNRAWVNSSNGAQNPWWNGGNCGAVELVSNVWGDTSLSSSMFNEVPSQCQ"
  soluble on expression in E. coli: "not soluble"
- SEQUENCE_CONTENT: "MLDPARSFDIIGDVHGCALTLERLLDALGYKRVAGVWRHPRRQALFLGDIVDRGPRIREALHIVHDMVEAGQAFCIMGNHEYNALGWVTPALPGSGKAYVREHTPRHARLIDETLTQFAQHPGDWHDFVNWFYQLPLFIDAGRFRLVHACWDPRLIEPLRQQYPDGRIDEHFIQASAVSGSFADTVCNRLLRGTDMRLPDGLTLTGGDGLTRAFFRTKFWEEDPKTYGDIVFQPDALPEEVASTPLSHSQKNALLRYDEDQPMLFVGHYWRSGRPAPIRANLACLDYSAVLYGKLVAYRLDDETRIDPHKFVWVDVDRPQANQLEHHHHHH"
  soluble on expression in E. coli: "soluble"
- SEQUENCE_CONTENT: "MAHVAFNLLHLPAKTLRNVFQLMSHSELFIFSFASICAKRLVKSMNFEMLELDLVYSRPCKLKISFGEHEEFIIEFDEFGTLSKQEPSDAFVFLIAYKLDIRDCINHVLEVYKISKLHTLKVIGAINNPQNLLKIIGKLDLKVLWIFFNFSENSTTISVYREILNHLGARCDVRSLRRGFYDKEPQKSFFLLRLSLSYALSQEPHSRPTATLAARRLKRRQDTQPLDATTSVLMLRSCRTVGRGTSLPTHPPFSFVIAPHYYSCTCSDIQGEPDKLQ"
  soluble on expression in E. coli: "not soluble"
- SEQUENCE_CONTENT: "MALANFDGPFDLLLQLIHSHKLDITEVALAQVTDEFIAYTKTLSSSAEDLDEVTEFLVVASTLLDLKAARLVPRGEVDSEEDLALLETRDLLFARLLQYRAYKQVADLFADWQRDAARAYPATLSLEEHHANLLPEVKIGKNADEFAELAAAVFRPKPDHVDTGHIHQVAVSVPEQAGRILNTLKVAGENTWVTFGALIADAELNMIVVGRFLALLELYKARAIGIEQPEPLQDMSVAWTGLDVDPAVVAASNWE"
  soluble on expression in E. coli: "soluble"

In: Find the recorded soluble on expression in E. coli belonging to MGSDKIHHHHHHMTIALTGGGTGGHLAIVRCLLESAIKKNIECVYIGSQNGQDKAWFENEVRFKEKFFLSSKGVVNQSKFDKISSLLHTLKLSKDCREIFKKYHIQAVFSVGGYSAAPASFAALFSHLPLFIHEQNSKSGSLNMLLKPFATKFFSAFEKEISPYPVADKFFDNARIRKELKNIIFLGGSQGAQFINELALNLAPKLQEQNIKIIHQCGKNDFEKCKKHYQSLNIQADIFDFSLNLEEKMKNADLAISRAGASTLFELCANTLPTIFIPYPYAAKNHQYFNAKFLQDQALCQIFMQNSINLDEFFKSILKLNLENISTRLQNITQKNGADMLIQKALFDNLTFIR and report it.
Out: not soluble

In: For the sequence shown here, MGSDKIHHHHHHMDFVDVPAVTRDATILSLRDVSRKLVRELGFMRSTLANSDLAPSAVHAVLEIGMKPGITAKDLATILRLDKSNTSRQIARLEAAGFVERRVSSDDARSSELYLSAEGKSLRARIDRFATSQVSNALRHMAPADQQALLRSLALYANALAQDNAGNAPPATPEAVQIIEGYQPGCIGDIASLHGRFYAAHWGFGAFFEKRVATELAAFAGSLPVDGKALWLYVENGRSLASLAIDGDKTTGIAHLRWFIVDESLHGSGIGRELMARAMRFVETQGFRETHLWTFKGLEAARHLYESHGFRLSEEFEGSQWGTTVTEQRFNRV , give the reported soluble on expression in E. coli.
Out: not soluble
